Tested on: PPARg DBDmut:RXRa IVT, anti-PPARg (DBD mutation: PPARg1 K132A/R137A, NR concentration 270 nM, RXRa partner concentration 90 nM)
Experiment: PBM binding z-score (relative to random genomic background probes); higher = stronger binding; sequences stand for … in GC…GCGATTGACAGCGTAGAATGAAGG
Measured PBM binding z-score of individual entries

The examples below pair each entry with its known result.
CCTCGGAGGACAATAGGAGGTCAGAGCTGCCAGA :: -0.47
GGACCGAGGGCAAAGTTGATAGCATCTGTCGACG :: -0.427
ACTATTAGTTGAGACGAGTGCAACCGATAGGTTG :: 0.728

Look up PBM binding z-score of `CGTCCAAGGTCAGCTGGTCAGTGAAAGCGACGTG` and report it.
0.5

Look up PBM binding z-score of `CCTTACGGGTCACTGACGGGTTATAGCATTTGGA` and report it.
0.267

Look up PBM binding z-score of `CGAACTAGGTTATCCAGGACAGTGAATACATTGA` and report it.
0.89

Look up PBM binding z-score of `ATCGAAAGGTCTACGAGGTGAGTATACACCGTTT` and report it.
0.797

Look up PBM binding z-score of `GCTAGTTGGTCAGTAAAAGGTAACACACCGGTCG` and report it.
-0.712

Look up PBM binding z-score of `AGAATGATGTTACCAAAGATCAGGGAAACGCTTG` and report it.
0.508

Look up PBM binding z-score of `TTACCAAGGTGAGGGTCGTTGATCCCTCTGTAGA` and report it.
-0.596

Look up PBM binding z-score of `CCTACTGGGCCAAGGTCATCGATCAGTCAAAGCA` and report it.
-0.807
